assay-method-text: Antioxidant activity assessed as […] reduction power at 1 uM after 1 hr by cupric ion reducing antioxidant capacity assay
Assay type: physicochemical
Lab note: compare Activity against 0.3 µM. Equal or greater, write Yes. Smaller, write No.

| molecule | answer-label |
| --- | --- |
| COc1cc(C[C@@H](O)CO)ccc1O | Yes |

In: Does the molecule OC[C@@]1(O)CO[C@@H](OC[C@H]2O[C@@H](OCc3ccccc3)[C@H](O)[C@@H](O)[C@@H]2O)[C@@H]1O have recorded Activity that is 0.3 µM or more?
Out: Yes

In: Does the molecule OC[C@H]1O[C@@H](OCc2ccccc2)[C@H](O)[C@@H](O)[C@@H]1O have recorded Activity that is 0.3 µM or more?
Out: Yes

In: Does the molecule CC(C)O[C@@H]1O[C@H](CO)[C@@H](O)[C@H](O)[C@H]1O have recorded Activity that is 0.3 µM or more?
Out: No

In: Does the molecule COc1cc(C[C@@H](O)CO)ccc1O[C@@H]1O[C@H](CO)[C@@H](O)[C@H](O)[C@H]1O have recorded Activity that is 0.3 µM or more?
Out: No

In: Does the molecule C=CCc1ccc(O)c(O)c1 [HYDROXYCHAVICOL] have recorded Activity that is 0.3 µM or more?
Out: Yes
